# Target Desc: Gonadotropin-releasing hormone receptor (Homo sapiens, UniProt P30968)
# Sequence (P30968 whole entry): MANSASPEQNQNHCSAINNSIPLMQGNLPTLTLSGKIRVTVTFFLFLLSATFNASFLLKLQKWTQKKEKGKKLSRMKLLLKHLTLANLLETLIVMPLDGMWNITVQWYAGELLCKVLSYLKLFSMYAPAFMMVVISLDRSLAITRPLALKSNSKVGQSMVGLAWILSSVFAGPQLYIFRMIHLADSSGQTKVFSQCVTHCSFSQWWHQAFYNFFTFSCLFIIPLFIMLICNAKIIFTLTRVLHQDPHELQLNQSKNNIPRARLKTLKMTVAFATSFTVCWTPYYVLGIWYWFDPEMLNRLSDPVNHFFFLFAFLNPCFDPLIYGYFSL
# Test Summary: Displacement of [125I]His5,D-Tyr6]GnRH from human cloned GnRH receptor transfected in COS7 cells
# Assay type: cell-based, COS-7
pKi: −log10 of the molar value.
Binary classification by pKi, with 6 as an inclusive lower bound for 1; all other cases are 0.

compound=CSc1ccc(CN2CCc3c(c(=O)n(CCN(C)CCc4ccccn4)c(=O)n3Cc3c(F)cccc3F)C2)cc1 answer_label=1
compound=Cc1ccc(CN2CCc3c(c(=O)n(CCN(C)CC(C)C)c(=O)n3Cc3c(F)cccc3F)C2)c(C)c1 answer_label=0
compound="Cc1ccc(CN2CCc3c(c(=O)n(CC4CCCN(C)C4)c(=O)n3Cc3c(F)cccc3F)C2)c(C)c1 (configuration not stated)" answer_label=0
compound=Cc1c(CN2CCc3c(c(=O)n(CCN(C)CCc4ccccn4)c(=O)n3Cc3c(F)cccc3F)C2)sc2ccccc12 answer_label=1
compound=COc1cccc(-n2c(=O)c3c(n(Cc4c(F)cccc4F)c2=O)CN(Cc2ccc(-n4ccnc4)cc2)CC3)c1 answer_label=1
compound="Cc1ccc(CN2CCc3c(c(=O)n(CC4CCCCN4CC(C)C)c(=O)n3Cc3c(F)cccc3F)C2)c(C)c1 (configuration not stated)" answer_label=0
compound="Cc1ccc(CN2CCc3c(c(=O)n(CC4CCCN(CC(C)C)C4)c(=O)n3Cc3c(F)cccc3F)C2)c(C)c1 (configuration not stated)" answer_label=0
compound=Cc1c(CN2CCc3c(c(=O)n(CCN(C)CCc4ccccn4)c(=O)n3C)C2)sc2ccccc12 answer_label=0
compound=CN(CCc1ccccn1)CCn1c(=O)c2c(n(Cc3c(F)cccc3F)c1=O)CCN(CCc1c[nH]c3ccccc13)C2 answer_label=1
compound=CN(CCc1ccccn1)CCn1c(=O)c2c(n(Cc3c(F)cccc3F)c1=O)CCN(Cc1ccc(Cl)cc1)C2 answer_label=1
compound=Cc1c(CN2CCc3c(c(=O)n(CCN(C)CCc4ccccn4)c(=O)n3CC3CCCCC3)C2)sc2ccccc12 answer_label=1
compound=O=c1c2c(n(Cc3c(F)cccc3F)c(=O)n1C[C@H]1CCCN1Cc1ccccn1)CCN(Cc1ccc(Cl)cc1)C2 answer_label=1
compound="Cc1ccc(CN2CCc3c(c(=O)n(CC4CCCCN4C4CCCC4)c(=O)n3Cc3c(F)cccc3F)C2)c(C)c1 (configuration not stated)" answer_label=1

src = ChEMBL document CHEMBL1149618
